# target.of.assay: PSG G322A (PSD-95)
# method.summary: FP displacement (competition) of FITC-15 AA CRIPT by library peptide, IC50 and Ki
# study.conditions: read-out: Ki (µM), PSG G322A; FP displacement of FITC-15 AA CRIPT probe by PSD library peptide; protein PSG G322A
endpoint.name: Ki (µM)

[[record]]
compound = "CC(=O)N[C@@H](Cc1ccc(O)cc1)C(=O)N[C@@H](CCC(=O)O)C(=O)N[C@@H](CCC(=O)O)C(=O)N[C@@H](CCC(=O)O)C(=O)N[C@@H](CC(C)C)C(=O)N[C@@H](CCC(N)=O)C(=O)N[C@@H](CC(=O)O)C(=O)N[C@@H](CO)C(=O)N[C@@H](CCCNC(=N)N)C(=O)N[C@H](C(=O)N[C@@H](Cc1ccc(O)cc1)C(=O)N[C@H](C(=O)N[C@@H](CO)C(=O)N[C@@H](CO)C(=O)N[C@@H](CC(C)C)C(=O)O)C(C)C)C(C)C [CAC1C]"
endpoint_name = "Ki"
value_units = "µM"
assay_result = 43


----------
# target.of.assay: PSG (PSD-95)
# method.summary: FP displacement (competition) of FITC-15 AA CRIPT by library peptide, IC50 and Ki
# study.conditions: read-out: IC50 (µM), PSG; FP displacement of FITC-15 AA CRIPT probe by library peptide
Ends that are not written are not given here.
endpoint.name: IC50

[[record]]
substance = "Ac-YSSPAQSVTPVQTVV [MTMR2]"
assay_result = "271 µM"


----------
# target.of.assay: PSG G335A (PSD-95)
# method.summary: FP displacement (competition) of FITC-15 AA CRIPT by library peptide, IC50 and Ki
# study.conditions: read-out: Ki (µM), PSG G335A; FP displacement of FITC-15 AA CRIPT probe by PSD library peptide; protein PSG G335A
Entries and their Ki values follow.
endpoint.name: Ki (µM)

[[record]]
compound = "CC(=O)N[C@@H](Cc1ccc(O)cc1)C(=O)N[C@@H](Cc1ccc(O)cc1)C(=O)N[C@@H](CCC(=O)O)C(=O)N[C@H](C(=O)N[C@@H](CO)C(=O)N[C@@H](Cc1c[nH]cn1)C(=O)N[C@@H](Cc1ccc(O)cc1)C(=O)N1CCC[C@H]1C(=O)N[C@@H](C)C(=O)N[C@@H](CO)C(=O)N1CCC[C@H]1C(=O)N[C@@H](CC(=O)O)C(=O)N[C@@H](CO)C(=O)N[C@@H](Cc1c[nH]c2ccccc12)C(=O)N[C@H](C(=O)O)C(C)C)[C@@H](C)O [CTND2]"
endpoint_name = "Ki"
value_units = "µM"
assay_result = 364

[[record]]
compound = "CC[C@H](C)[C@H](NC(=O)[C@H](CCC(=O)O)NC(=O)[C@@H](NC(=O)[C@H](C)NC(=O)[C@@H](NC(=O)[C@@H](NC(=O)[C@H](CC(=O)O)NC(=O)[C@H](CCC(=O)O)NC(=O)[C@H](Cc1ccc(O)cc1)NC(=O)[C@@H]1CCCN1C(=O)[C@@H](NC(=O)[C@H](CC(=O)O)NC(=O)[C@H](C)NC(=O)CNC(=O)[C@H](Cc1ccc(O)cc1)NC(C)=O)[C@@H](C)CC)[C@@H](C)CC)[C@@H](C)CC)[C@@H](C)O)C(=O)O [LZTS1]"
endpoint_name = "Ki"
value_units = "µM"
assay_result = 231

[[record]]
compound = "CC[C@H](C)[C@H](NC(=O)[C@H](CCCCN)NC(=O)[C@@H]1CCCN1C(=O)[C@H](CC(C)C)NC(=O)[C@H](CCCNC(=N)N)NC(=O)[C@H](Cc1c[nH]cn1)NC(=O)[C@H](CO)NC(=O)CNC(=O)[C@H](CC(=O)O)NC(=O)[C@H](Cc1ccc(O)cc1)NC(C)=O)C(=O)N[C@@H](CCCCN)C(=O)N[C@@H](CCC(=O)O)C(=O)N[C@H](C(=O)N[C@H](C(=O)N[C@H](C(=O)O)C(C)C)[C@@H](C)O)[C@@H](C)O [FRPD4]"
endpoint_name = "Ki"
value_units = "µM"
assay_result = 0.753


----------
# target.of.assay: PSG G322A (PSD-95)
# method.summary: FP displacement (competition) of FITC-15 AA CRIPT by library peptide, IC50 and Ki
# study.conditions: read-out: Ki (µM), PSG G322A; FP displacement of FITC-15 AA CRIPT probe by acetylated PSD library peptide
Examples of compounds with documented Ki follow.
endpoint.name: Ki (µM)

[[record]]
compound = "CC[C@H](C)[C@H](NC(=O)[C@@H]1CCCN1C(=O)[C@H](Cc1ccc(O)cc1)NC(C)=O)C(=O)NCC(=O)NCC(=O)N[C@@H](CO)C(=O)N[C@@H](CC(C)C)C(=O)N[C@@H](CC(N)=O)C(=O)N[C@@H](CO)C(=O)N[C@H](C(=O)N[C@H](C(=O)N[C@@H](CC(=O)O)C(=O)N[C@@H](CO)C(=O)N[C@@H](C)C(=O)N[C@@H](CC(C)C)C(=O)O)[C@@H](C)O)[C@@H](C)O"
endpoint_name = "Ki"
value_units = "µM"
assay_result = 57

[[record]]
compound = "CC(=O)N[C@@H](Cc1ccc(O)cc1)C(=O)N[C@@H](CO)C(=O)N[C@@H](CC(C)C)C(=O)N[C@@H](CO)C(=O)N[C@@H](CCCCN)C(=O)N[C@@H](Cc1c[nH]cn1)C(=O)N[C@@H](CCC(=O)O)C(=O)N[C@@H](CO)C(=O)N[C@@H](CCC(=O)O)C(=O)N[C@@H](Cc1ccc(O)cc1)C(=O)N[C@@H](CC(N)=O)C(=O)N[C@H](C(=O)N[C@H](C(=O)N[C@@H](CCCNC(=N)N)C(=O)N[C@H](C(=O)O)C(C)C)[C@@H](C)O)[C@@H](C)O"
endpoint_name = "Ki"
value_units = "µM"
assay_result = 45

[[record]]
compound = "CC(=O)N[C@@H](Cc1ccc(O)cc1)C(=O)N[C@@H](CCC(N)=O)C(=O)N[C@@H](CCCNC(=N)N)C(=O)NCC(=O)N[C@@H](CO)C(=O)N[C@@H](Cc1ccccc1)C(=O)N1CCC[C@H]1C(=O)N1CCC[C@H]1C(=O)N[C@@H](Cc1c[nH]c2ccccc12)C(=O)N[C@H](C(=O)N[C@@H](CCC(N)=O)C(=O)N[C@@H](CCC(N)=O)C(=O)N[C@H](C(=O)N[C@@H](CCCNC(=N)N)C(=O)N[C@H](C(=O)O)C(C)C)[C@@H](C)O)C(C)C [SYNGAP⍺1]"
endpoint_name = "Ki"
value_units = "µM"
assay_result = 0.4


----------
Listing of entries alongside the reported Ki.
# target.of.assay: PSG G335A (PSD-95)
# method.summary: FP displacement (competition) of FITC-15 AA CRIPT by library peptide, IC50 and Ki
# study.conditions: read-out: Ki (µM), PSG G335A; FP displacement of FITC-15 AA CRIPT probe by acetylated PSD library peptide
endpoint.name: Ki (µM)

[[record]]
compound = "CC[C@H](C)[C@H](NC(=O)[C@H](CO)NC(=O)[C@@H](NC(=O)[C@@H](NC(=O)[C@@H]1CCCN1C(=O)[C@H](CC(C)C)NC(=O)[C@H](C)NC(=O)[C@@H]1CCCN1C(=O)[C@H](Cc1ccc(O)cc1)NC(C)=O)[C@@H](C)O)C(C)C)C(=O)N[C@@H](CO)C(=O)N[C@@H](CO)C(=O)N[C@@H](CO)C(=O)N[C@@H](C)C(=O)N[C@@H](CCC(=O)O)C(=O)N[C@H](C(=O)O)C(C)C [DOC10]"
endpoint_name = "Ki"
value_units = "µM"
assay_result = 718

[[record]]
compound = "CC(=O)N[C@@H](Cc1ccc(O)cc1)C(=O)N[C@@H](CCC(N)=O)C(=O)N[C@@H](CCCNC(=N)N)C(=O)NCC(=O)N[C@@H](CO)C(=O)N[C@@H](Cc1ccccc1)C(=O)N1CCC[C@H]1C(=O)N1CCC[C@H]1C(=O)N[C@@H](Cc1c[nH]c2ccccc12)C(=O)N[C@H](C(=O)N[C@@H](CCC(N)=O)C(=O)N[C@@H](CCC(N)=O)C(=O)N[C@H](C(=O)N[C@@H](CCCNC(=N)N)C(=O)N[C@H](C(=O)O)C(C)C)[C@@H](C)O)C(C)C [SYNGAP⍺1]"
endpoint_name = "Ki"
value_units = "µM"
assay_result = 0.24

[[record]]
compound = "CSCC[C@H](NC(=O)[C@H](CCC(N)=O)NC(=O)[C@H](CC(=O)O)NC(=O)[C@H](Cc1ccc(O)cc1)NC(=O)[C@H](CC(=O)O)NC(=O)[C@@H]1CCCN1C(=O)[C@H](CO)NC(=O)[C@H](CCCCN)NC(=O)[C@H](CC(C)C)NC(=O)[C@H](Cc1ccc(O)cc1)NC(C)=O)C(=O)N[C@@H](CO)C(=O)N[C@@H](CO)C(=O)N[C@@H](CO)C(=O)N1CCC[C@H]1C(=O)N[C@@H](CS)C(=O)O [CCG5]"
endpoint_name = "Ki"
value_units = "µM"
assay_result = 907

[[record]]
compound = "CC[C@H](C)[C@H](NC(=O)[C@@H](NC(=O)[C@H](CCCCN)NC(=O)[C@H](CCCCN)NC(=O)CNC(=O)[C@H](CC(C)C)NC(=O)[C@H](CCCCN)NC(=O)[C@H](C)NC(=O)[C@H](CCSC)NC(=O)[C@H](CCCNC(=N)N)NC(=O)[C@H](CCSC)NC(=O)[C@H](CCCNC(=N)N)NC(=O)[C@H](CC(C)C)NC(=O)[C@H](C)NC(=O)[C@H](Cc1ccc(O)cc1)NC(C)=O)C(C)C)C(=O)O [PALMD]"
endpoint_name = "Ki"
value_units = "µM"
assay_result = 569

[[record]]
compound = "CC(=O)N[C@@H](Cc1ccc(O)cc1)C(=O)N[C@@H](C)C(=O)N[C@@H](CO)C(=O)N[C@@H](CC(N)=O)C(=O)N[C@H](C(=O)N[C@@H](CC(N)=O)C(=O)N[C@H](C(=O)N[C@@H](CC(C)C)C(=O)N[C@@H](CC(N)=O)C(=O)N[C@@H](CCCNC(=N)N)C(=O)N[C@@H](CCCCN)C(=O)N[C@H](C(=O)N[C@H](C(=O)N1CCC[C@H]1C(=O)N[C@H](C(=O)O)C(C)C)[C@@H](C)O)[C@@H](C)O)[C@@H](C)O)[C@@H](C)O [CCG8]"
endpoint_name = "Ki"
value_units = "µM"
assay_result = 10

[[record]]
compound = "CC(=O)N[C@@H](Cc1ccc(O)cc1)C(=O)N[C@@H](CO)C(=O)N[C@@H](CC(C)C)C(=O)N[C@@H](CO)C(=O)N[C@@H](CCCCN)C(=O)N[C@@H](Cc1c[nH]cn1)C(=O)N[C@@H](CCC(=O)O)C(=O)N[C@@H](CO)C(=O)N[C@@H](CCC(=O)O)C(=O)N[C@@H](Cc1ccc(O)cc1)C(=O)N[C@@H](CC(N)=O)C(=O)N[C@H](C(=O)N[C@H](C(=O)N[C@@H](CCCNC(=N)N)C(=O)N[C@H](C(=O)O)C(C)C)[C@@H](C)O)[C@@H](C)O [NETO1]"
endpoint_name = "Ki"
value_units = "µM"
assay_result = 27

[[record]]
compound = "CC(=O)N[C@@H](Cc1ccc(O)cc1)C(=O)N[C@@H](CC(N)=O)C(=O)N[C@@H](CO)C(=O)N[C@H](C(=O)N[C@@H](CC(N)=O)C(=O)N[C@@H](CC(C)C)C(=O)N1CCC[C@H]1C(=O)N[C@@H](Cc1c[nH]cn1)C(=O)NCC(=O)N[C@@H](Cc1c[nH]cn1)C(=O)N[C@@H](CO)C(=O)N[C@H](C(=O)N[C@H](C(=O)N[C@@H](CCCNC(=N)N)C(=O)N[C@H](C(=O)O)C(C)C)[C@@H](C)O)[C@@H](C)O)[C@@H](C)O [NLGNX]"
endpoint_name = "Ki"
value_units = "µM"
assay_result = 14

[[record]]
compound = "CC[C@H](C)[C@H](NC(=O)[C@H](Cc1ccc(O)cc1)NC(=O)[C@H](CO)NC(=O)CNC(=O)[C@H](CO)NC(=O)[C@H](CCC(N)=O)NC(=O)[C@H](Cc1ccc(O)cc1)NC(C)=O)C(=O)N[C@@H](Cc1c[nH]c2ccccc12)C(=O)N[C@H](C(=O)N1CCC[C@H]1C(=O)N[C@@H](C)C(=O)N[C@@H](CCCCN)C(=O)N[C@@H](CCC(=O)O)C(=O)N[C@@H](CCCCN)C(=O)N[C@@H](CC(C)C)C(=O)O)C(C)C [DLG1]"
endpoint_name = "Ki"
value_units = "µM"
assay_result = 466

[[record]]
compound = "CC[C@H](C)[C@H](NC(=O)[C@H](Cc1ccccc1)NC(=O)[C@H](CO)NC(=O)[C@H](CCCNC(=N)N)NC(=O)[C@H](CCCCN)NC(=O)[C@@H]1CCCN1C(=O)[C@H](CCCCN)NC(=O)[C@H](C)NC(=O)[C@H](C)NC(=O)[C@@H](NC(=O)[C@H](Cc1ccc(O)cc1)NC(C)=O)[C@@H](C)O)C(=O)N[C@@H](CCC(=O)O)C(=O)N[C@@H](CO)C(=O)N[C@@H](CC(N)=O)C(=O)N[C@H](C(=O)O)C(C)C [TANC1]"
endpoint_name = "Ki"
value_units = "µM"
assay_result = 8.45

[[record]]
compound = "CC[C@H](C)[C@H](NC(=O)[C@H](CC(C)C)NC(=O)[C@H](C)NC(=O)[C@@H](NC(=O)[C@H](C)NC(=O)[C@H](Cc1ccc(O)cc1)NC(C)=O)C(C)C)C(=O)N[C@@H](C)C(=O)N[C@@H](Cc1ccc(O)cc1)C(=O)N[C@@H](CC(C)C)C(=O)N[C@@H](CO)C(=O)N[C@@H](CCCCN)C(=O)N[C@@H](CC(N)=O)C(=O)N[C@@H](CC(N)=O)C(=O)N[C@@H](Cc1c[nH]cn1)C(=O)N[C@@H](CC(C)C)C(=O)O [SYNG1]"
endpoint_name = "Ki"
value_units = "µM"
assay_result = 236

